test: Metabolic stability in iv dosed Sprague-Dawley rat urine assessed as drug recovery; assay type: ADME, organism-based; conditions: read-out: Drug uptake
Recorded Metric: dose excreted (%)
One number for each entry, in %.

Task: So what's the measured dose excreted for this one? `Cc1nnc(C(=O)NC(C)(C)c2nc(C(=O)NCc3ccc([19F])cc3)c(O)c(=O)n2C)o1`
Output: 10

* * *

So I've got a bunch of compounds here, and I need their IC50 values.
assay: Inhibition of HIV ribonuclease H; parameters: species or system Human immunodeficiency virus

Please give IC50 for each item listed below.
1. CN(C)C(=O)C(=O)NC(C)(C)c1nc(C(=O)NCc2ccc(F)cc2)c(O)c(=O)n1C
2. Cc1nnc(C(=O)NC(C)(C)c2nc(C(=O)NCc3ccc(F)cc3)c(O)c(=O)n2C)o1

Output:
1. > 50 µM
2. > 50 µM

* * *

assay: Cmax in dog at 2 mg/kg, po; type: ADME, organism-based, Canis lupus familiaris; design: dose 2 mg/kg, route oral; conditions: in vivo
Recorded Metric: Cmax

| Item Smiles | Recorded Metric | Experimental Value |
| --- | --- | --- |
| Cc1nnc(C(=O)NC(C)(C)c2nc(C(=O)NCc3ccc(F)cc3)c([O-])c(=O)n2C)o1.[K+] | Cmax | 4.6 µM |

Task: Give the measured Cmax of `Cc1nnc(C(=O)NC(C)(C)c2nc(C(=O)NCc3ccc(F)cc3)c(O)c(=O)n2C)o1` .
Output: 3 µM

* * *

assay: Primary phase half life in rhesus monkey at 1 mg/kg, iv; assay type: ADME, organism-based, Macaca mulatta; set-up: dose 1 mg/kg, route intravenous; settings: in vivo, read-out: alphat1/2 (converted)
Recorded Metric: half-life (min)
One number for each entry, in min.

Task: half-life for `CN(C)C(=O)C(=O)NC(C)(C)c1nc(C(=O)NCc2ccc(F)cc2)c(O)c(=O)n1C` ?
Output: 54

* * *

tested on: Human immunodeficiency virus 1; assay: Antiviral activity against HIV1 3B in human MT4 cells in presence of 50% normal human serum; format: functional; details: Human immunodeficiency virus 1, 3B, MT4; read-out: CIC95
Give Fulfilled when the value for IC95 is at least 200 nM. Give Not fulfilled when it is less.

Example entries and their recorded answers appear below.
| Item Smiles | Label Value |
| --- | --- |
| CN1CCN(C(=O)C(=O)NC(C)(C)c2nc(C(=O)NCc3ccc(F)cc3)c(O)c(=O)n2C)CC1 | Fulfilled |
| CN(C)C(=O)C(=O)NC(C)(C)c1nc(C(=O)NCc2ccc(F)cc2)c([O-])c(=O)n1C.[Na+] | Not fulfilled |

Task: Does IC95 meet or surpass 200 nM for `Cc1nnc(C(=O)NC(C)(C)c2nc(C(=O)NCc3ccc(F)cc3)c(O)c(=O)n2C)[nH]1` ?
Output: Fulfilled

Task: Hi, just wondering whether `Cn1c(C(C)(C)NC(=O)c2cnco2)nc(C(=O)NCc2ccc(F)cc2)c(O)c1=O` shows IC95 of 200 nM or higher.
Output: Fulfilled

Task: Is IC95 for `CN(C)C(=O)NC(C)(C)c1nc(C(=O)NCc2ccc(F)cc2)c(O)c(=O)n1C` at or above 200 nM?
Output: Fulfilled

* * *

experiment: Terminal half life in po dosed Sprague-Dawley rat; assay type: ADME, organism-based; settings: in vivo
I'd appreciate it if you could supply half-life values for the items below.
Returns: string containing the numeric result and its unit.

These solved cases illustrate the format of a correct answer.
| Compound | half-life |
| --- | --- |
| CN(C)C(=O)C(=O)NC(C)(C)c1nc(C(=O)NCc2ccc(F)cc2)c([O-])c(=O)n1C.[Na+] | 2.3 h |
| Cc1nnc(C(=O)NC(C)(C)c2nc(C(=O)NCc3ccc(F)cc3)c([O-])c(=O)n2C)o1.[K+] [RALTEGRAVIR POTASSIUM] | 7.5 h |

Now consider the entry below.
Task: What does the record list as half-life for `CN(C)C(=O)C(=O)NC(C)(C)c1nc(C(=O)NCc2ccc(F)cc2)c(O)c(=O)n1C` ?
Output: 0.9 h

* * *

test: Terminal half life in dog at 1 mg/kg, iv; format: ADME, organism-based, Canis lupus familiaris; set-up: dose 1 mg/kg, route intravenous; settings: in vivo, read-out: beta t1/2 (converted)
Recorded Metric: half-life (h)
Answers are plain numbers, in h.

Task: Tell me the measured half-life of `Cc1nnc(C(=O)NC(C)(C)c2nc(C(=O)NCc3ccc(F)cc3)c(O)c(=O)n2C)o1` , please.
Output: 11

* * *

assay: Oral bioavailability in po dosed Sprague-Dawley rat; type: ADME, organism-based; settings: in vivo
Exercise: state measured bioavailability for each of the molecules provided.
One number for each entry, in %.

| Molecule | Value Units | bioavailability |
| --- | --- | --- |
| Cc1nnc(C(=O)NC(C)(C)c2nc(C(=O)NCc3ccc(F)cc3)c([O-])c(=O)n2C)o1.[K+] [RALTEGRAVIR POTASSIUM] | % | 45 |

Working through the 2 molecules below one at a time, give bioavailability for each.
1. CN(C)C(=O)C(=O)NC(C)(C)c1nc(C(=O)NCc2ccc(F)cc2)c([O-])c(=O)n1C.[Na+]
2. Cc1nnc(C(=O)NC(C)(C)c2nc(C(=O)NCc3ccc(F)cc3)c(O)c(=O)n2C)o1

Output:
1. 36
2. 37

* * *

assay: Cmax in dog at 10 mg/kg, po; format: ADME, organism-based, Canis lupus familiaris; set-up: dose 10 mg/kg, route oral; settings: in vivo
Field: Cmax. Provide a value for each of the molecules that follow.
One number for each entry, in µM.

Solved entries (count: 3):
| Molecule | Cmax / µM |
| --- | --- |
| CN(C)C(=O)C(=O)NC(C)(C)c1nc(C(=O)NCc2ccc(F)cc2)c(O)c(=O)n1C | 11 |
| CN(C)C(=O)C(=O)NC(C)(C)c1nc(C(=O)NCc2ccc(F)cc2)c([O-])c(=O)n1C.[Na+] | 32 |
| Cc1nnc(C(=O)NC(C)(C)c2nc(C(=O)NCc3ccc(F)cc3)c([O-])c(=O)n2C)o1.[K+] [RALTEGRAVIR POTASSIUM] | 24 |

Task: Which Cmax is reported for this molecule? `Cc1nnc(C(=O)NC(C)(C)c2nc(C(=O)NCc3ccc(F)cc3)c(O)c(=O)n2C)o1`
Output: 8

* * *

pIC50: −log10 of the molar value.
Parameter pIC50, tested on UniProt:P11712, listed per item.
Sequence (P11712 whole entry): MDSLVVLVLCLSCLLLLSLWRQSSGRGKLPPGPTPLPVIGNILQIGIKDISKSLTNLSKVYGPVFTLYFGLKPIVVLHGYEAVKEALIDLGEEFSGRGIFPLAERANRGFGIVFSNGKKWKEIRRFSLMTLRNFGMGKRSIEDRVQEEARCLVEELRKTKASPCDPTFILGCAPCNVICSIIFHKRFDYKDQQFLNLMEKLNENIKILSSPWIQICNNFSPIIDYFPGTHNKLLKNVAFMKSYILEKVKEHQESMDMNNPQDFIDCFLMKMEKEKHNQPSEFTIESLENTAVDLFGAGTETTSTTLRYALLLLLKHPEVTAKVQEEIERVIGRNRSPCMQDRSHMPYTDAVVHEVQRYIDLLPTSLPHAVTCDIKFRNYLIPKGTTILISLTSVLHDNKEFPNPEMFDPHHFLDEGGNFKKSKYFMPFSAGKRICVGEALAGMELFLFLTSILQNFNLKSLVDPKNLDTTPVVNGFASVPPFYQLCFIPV

| Item Smiles | pIC50 |
| --- | --- |
| Cc1nnc(C(=O)NC(C)(C)c2nc(C(=O)NCc3ccc(F)cc3)c(O)c(=O)n2C)o1 | < 4.30 |

Next:
Task: # pIC50 lookup, item `CN(C)C(=O)C(=O)NC(C)(C)c1nc(C(=O)NCc2ccc(F)cc2)c(O)c(=O)n1C`
Output: < 4.30

* * *

experiment: Cmax in Sprague-Dawley rat at 100 mg/kg, po using PEG400 as vehicle; assay type: ADME, organism-based; design: dose 100 mg/kg, route oral; conditions: in vivo
Recorded Metric: Cmax (µM)
Answers are plain numbers, in µM.

Task: Please look up its Cmax: `CN(C)C(=O)C(=O)NC(C)(C)c1nc(C(=O)NCc2ccc(F)cc2)c(O)c(=O)n1C`
Output: 31

* * *

Exercise: for every item that follows, state its recorded Cmax.
experiment: Cmax in Sprague-Dawley rat at 3 mg/kg, po; type: ADME, organism-based; design: dose 3 mg/kg, route oral; conditions: in vivo
One number for each entry, in nM.

Example molecules with recorded Cmax:
| Item Smiles | Experimental Value |
| --- | --- |
| CN(C)C(=O)C(=O)NC(C)(C)c1nc(C(=O)NCc2ccc(F)cc2)c([O-])c(=O)n1C.[Na+] | 4100 |
| Cc1nnc(C(=O)NC(C)(C)c2nc(C(=O)NCc3ccc(F)cc3)c(O)c(=O)n2C)o1 | 1200 |

Task: Dear colleague, I am looking for the recorded Cmax of the following molecule: `CN(C)C(=O)C(=O)NC(C)(C)c1nc(C(=O)NCc2ccc(F)cc2)c(O)c(=O)n1C`
Output: 600

* * *

experiment: Metabolic stability in iv dosed dog urine assessed as drug recovery; type: ADME, organism-based, Canis lupus familiaris; details: read-out: Drug uptake
Recorded Metric: dose excreted (%)
One number for each entry, in %.

Task: Which dose excreted value belongs to `Cc1nnc(C(=O)NC(C)(C)c2nc(C(=O)NCc3ccc([19F])cc3)c(O)c(=O)n2C)o1` ?
Output: 65

* * *

assay: AUC in rhesus monkey at 10 mg/kg, po; type: ADME, organism-based, Macaca mulatta; set-up: dose 10 mg/kg, route oral; details: plasma
Recorded Metric: AUC (µM·h)
Answers are plain numbers, in µM·h.

| Item Smiles | Value Units | Experimental Value |
| --- | --- | --- |
| CN(C)C(=O)C(=O)NC(C)(C)c1nc(C(=O)NCc2ccc(F)cc2)c(O)c(=O)n1C | µM·h | 5.2 |

Note: attention shifts to another entry.
Task: Recorded AUC of `Cc1nnc(C(=O)NC(C)(C)c2nc(C(=O)NCc3ccc(F)cc3)c(O)c(=O)n2C)o1` , please.
Output: 1.8

This collection of values is drawn from ChEMBL document CHEMBL1140081.
